Test Conditions: buffer; pH 7.4; 200.0 µM
Please note: yes (1) applies when solubility kinetic is 20 µg/mL or greater, and no (0) applies otherwise.

Compound: O=C(CSc1nncn1-c1ccccc1)N1CCCC1
Label Class: yes (1)

Could you verify whether the entry O=C(CC1SCCNC1=O)Nc1ccccc1Cl (stereo not given) shows solubility kinetic of no less than 20 µg/mL?
yes (1)

###

Test Conditions: buffer; pH 7.4; 200.0 µM
Recorded Endpoint: solubility kinetic

Worked examples follow.
Molecule: COc1ccc(OC)c(N(CC(=O)Nc2cccc3ccccc23)S(C)(=O)=O)c1
Recorded Endpoint: solubility kinetic
Result: 43 µg/mL
--
Molecule: O=S(=O)(c1ccc(Br)c2ccccc12)N1CCOCC1
Recorded Endpoint: solubility kinetic
Result: 17.4 µg/mL
--
Molecule: CC(O)c1cccc(NC(=O)CCCc2ccccc2)c1 (stereo unspecified)
Recorded Endpoint: solubility kinetic
Result: 39 µg/mL
--
Molecule: O=C(Cn1cc(C(F)(F)F)ccc1=O)NCc1ccc(F)cc1
Recorded Endpoint: solubility kinetic
Result: > 49.2 µg/mL
--
Molecule: Cc1cnc(C(=O)NC(C)CCc2ccccc2)cn1 (stereo unspecified)
Recorded Endpoint: solubility kinetic
Result: > 40.4 µg/mL

Return the recorded solubility kinetic value; entry: Cc1ccc(C)c(NC(=O)/C(C#N)=C/c2ccc[nH]2)c1
3.7 µg/mL
